Examples of molecules with documented Kd follow.
target: UniProtKB Q9Y4B6; test: Binding affinity to Avi-tagged DCAF1 (1073 to 1399 residues) (unknown origin) expressed in baculovirus infected in Sf9 insect cells by SPR analysis
Give the value, in units of µM, as a plain number.

Examples with answers:
smiles entry: COc1ccc(C2(c3nc(NCCN)c4ccccc4n3)CC2)cc1
units: µM
Kd: 26.7

smiles entry: CN1CCN(c2ccc3c(NCCN)nc(C4(c5ccc(Cl)cc5)CCCC4)nc3c2)CC1
units: µM
Kd: 0.098

smiles entry: CN1CCN(c2ccc3c(NCCN)nc(C4(c5ccc(Cl)cc5)CCCCC4)nc3c2)CC1
units: µM
Kd: 0.083

smiles entry: CC(=O)N1CCN(c2ccc3c(NCCN)nc(C4(c5ccc(Cl)cc5)CCCC4)nc3c2)CC1
units: µM
Kd: 0.047

smiles entry: COc1ccc(C2(c3nc(NCCN)c4ccc(N5CCN(C(C)=O)CC5)cc4n3)CC2)cc1
units: µM
Kd: 1.5

Fill blank: measured Kd of the molecule `Clc1ccc(C2(C3=Cc4ccccc4C4=NCCN34)CC2)cc1` is ____. 41

Fill blank: measured Kd of the molecule `COc1ccc(C2(c3nc(NCCN)c4ccc(N5CCN(C)CC5)cc4n3)CC2)cc1` is ____. 5.6

Fill blank: measured Kd of the molecule `COc1ccc(C2(C3=Cc4cc(N5CCN(C)CC5)ccc4C4=NCCN34)CC2)cc1` is ____. 11.4

---

target: DDB1- and CUL4-associated factor 1 (Homo sapiens); test: Binding affinity to Avi-tagged DCAF1 (1039 to 1401 residues) (unknown origin) expressed in baculovirus infected in Sf9 insect cells by NMR analysis
Sequence (Q9Y4B6 whole entry, the tested form may be a part): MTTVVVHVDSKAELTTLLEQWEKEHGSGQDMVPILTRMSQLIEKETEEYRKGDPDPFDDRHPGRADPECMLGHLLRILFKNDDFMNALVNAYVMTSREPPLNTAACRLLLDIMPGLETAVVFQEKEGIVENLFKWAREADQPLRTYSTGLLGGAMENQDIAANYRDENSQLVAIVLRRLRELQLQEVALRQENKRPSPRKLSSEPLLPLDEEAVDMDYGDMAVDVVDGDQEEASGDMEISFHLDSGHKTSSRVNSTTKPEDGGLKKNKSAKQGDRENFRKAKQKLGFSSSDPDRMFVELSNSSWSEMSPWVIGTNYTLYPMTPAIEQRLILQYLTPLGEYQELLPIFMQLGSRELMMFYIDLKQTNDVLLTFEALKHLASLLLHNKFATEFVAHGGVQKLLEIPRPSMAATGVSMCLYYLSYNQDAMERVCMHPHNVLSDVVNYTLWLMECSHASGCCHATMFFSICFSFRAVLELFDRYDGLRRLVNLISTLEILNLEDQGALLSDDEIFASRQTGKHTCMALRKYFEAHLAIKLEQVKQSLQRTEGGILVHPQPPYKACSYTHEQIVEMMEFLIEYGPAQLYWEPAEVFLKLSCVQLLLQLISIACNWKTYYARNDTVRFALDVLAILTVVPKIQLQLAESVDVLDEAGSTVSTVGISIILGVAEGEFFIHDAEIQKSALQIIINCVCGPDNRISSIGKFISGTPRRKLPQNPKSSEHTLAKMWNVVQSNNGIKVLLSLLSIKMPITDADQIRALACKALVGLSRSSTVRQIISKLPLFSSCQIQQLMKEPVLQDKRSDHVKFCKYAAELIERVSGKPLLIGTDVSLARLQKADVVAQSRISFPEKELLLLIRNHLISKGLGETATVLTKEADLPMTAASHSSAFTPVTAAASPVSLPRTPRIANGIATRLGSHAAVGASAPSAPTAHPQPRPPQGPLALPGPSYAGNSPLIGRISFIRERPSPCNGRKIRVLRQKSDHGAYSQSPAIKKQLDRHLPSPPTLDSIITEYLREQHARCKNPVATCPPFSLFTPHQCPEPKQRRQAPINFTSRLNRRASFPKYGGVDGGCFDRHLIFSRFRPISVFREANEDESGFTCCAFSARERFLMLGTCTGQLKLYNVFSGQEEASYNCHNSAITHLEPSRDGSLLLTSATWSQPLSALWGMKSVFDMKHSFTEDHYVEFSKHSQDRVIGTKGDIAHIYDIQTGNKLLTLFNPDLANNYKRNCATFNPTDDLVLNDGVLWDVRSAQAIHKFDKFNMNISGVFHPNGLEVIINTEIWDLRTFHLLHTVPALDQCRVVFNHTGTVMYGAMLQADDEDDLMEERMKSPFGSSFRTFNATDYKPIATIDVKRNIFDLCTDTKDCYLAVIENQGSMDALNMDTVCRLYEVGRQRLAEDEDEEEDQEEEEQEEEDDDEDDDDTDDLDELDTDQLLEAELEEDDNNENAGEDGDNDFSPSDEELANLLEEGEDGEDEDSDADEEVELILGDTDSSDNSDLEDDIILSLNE
measured attribute: Kd (µM)
Give the value, in units of µM, as a plain number.

smiles entry: CC(C)(Cc1ccccc1)C1=Cc2ccccc2C2=NCCN12
assay target: DDB1- and CUL4-associated factor 1 (Homo sapiens)
numeric result: 40

Fill blank: measured Kd of the compound `Clc1ccc(C2(C3=Cc4ccccc4C4=NCCN34)CC2)cc1` is ____. 13

The reported measurements were obtained from BindingDB's records for doi:10.1021/acsmedchemlett.3c00104.
